- tgt: DarmCSP2 (Dendroctonus armandi)
- Sequence (A0A3S7PYZ0 entry or part of it): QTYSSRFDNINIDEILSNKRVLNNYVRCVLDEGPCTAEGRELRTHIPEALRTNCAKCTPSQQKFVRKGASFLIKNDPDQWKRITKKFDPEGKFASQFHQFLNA
Rule: Ki below 3 µM gives 1 (yes). Equal to or above 3 µM gives 0 (no).

> print(dat)
                                   molecule  classification
1  CC[C@@H]1O[C@]2(C)CCC[C@H]1O2 (racemic) [(±)-exo-Brevicomin]          0 (no)
2  CC1=C[C@H](O)[C@@H]2C[C@H]1C2(C)C (relative stereo) [(-)-trans-Verbenol]         1 (yes)
3  C=C(C)[C@H]1CC=C(C)CC1 [(R)-(+)-Limonene]          0 (no)
4  CC1=CCC2C(C1)C2(C)C (single isomer, unassigned; (+)) [(+)-3-Carene]         1 (yes)
5      CC1=CCC2CC1C2(C)C (stereo not drawn)         1 (yes)
6  CC1=CC[C@H](C(C)C)C=C1 [(R)-(-)-a-Phellandrene]          0 (no)
